Parameter: reverse-splicing fitness. Scope: all listed entries.
B1: Azoarcus group I ribozyme (parent)
chain: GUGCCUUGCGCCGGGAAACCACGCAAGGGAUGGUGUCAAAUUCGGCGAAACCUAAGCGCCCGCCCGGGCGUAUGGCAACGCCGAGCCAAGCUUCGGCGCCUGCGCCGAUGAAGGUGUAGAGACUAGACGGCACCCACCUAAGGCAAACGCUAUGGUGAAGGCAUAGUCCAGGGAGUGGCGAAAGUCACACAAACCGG

variants of: B1; experiment: reverse-splicing fitness (ratio to wild type); higher = more active; in vitro selection; Mg2+ level not given
Give your answer as a number; write no unit.

Take a look at these entries with their results.
{"mutation notation": "C82A A111U A120U A145C U176C", "reverse-splicing fitness": 0.00758}
{"mutation notation": "A120U A145C C169U", "reverse-splicing fitness": 0.263}
{"mutation notation": "C82U A111G A120C A145G C169U U176A", "reverse-splicing fitness": 0.0141}

In: Give the reported reverse-splicing fitness for this variant. C82U A111U A120G C169G U176A
Out: 0.0203

In: Give the reported reverse-splicing fitness for this variant. C82A A111G A120G A145C C150U C169A U176G
Out: 0.00561

In: Give the reported reverse-splicing fitness for this variant. C82A A111C A120C C150A U176C
Out: 0.0178

In: Give the reported reverse-splicing fitness for this variant. A111C A120C A145U C150G C169U
Out: 0.0234

In: Give the reported reverse-splicing fitness for this variant. C82U A111U A145C C150U C169G U176A
Out: 0.0199

Origin of values: the RNAGym collection of RNA variant scans (doi:10.1093/molbev/msab373)
